Recorded values, source ChEMBL document CHEMBL3352188.

Tested on: Candida albicans
Test: Antimicrobial activity against Candida albicans MTCC 227 after 48 to 72 hrs by two fold dilution method
Format: functional
parameter: MIC (µg/mL)
Dear colleague, please return just the value in µg/mL, with no unit written.

Some molecules with known MIC results, for comparison:
Query `C[C@H](N[C@H](C)c1ccccc1)[C@H](O)c1ccccc1.Cl` yields MIC of 125

Query `COc1ccc([C@@H](C)N[C@@H](C)[C@H](O)c2ccccc2)cc1.Cl` yields MIC of 62.5

Query `COc1ccc([C@H](C)N[C@H](C)[C@@H](O)c2ccccc2)cc1.Cl` yields MIC of 62.5

# input for lookup
Query `C[C@H](N[C@H](C)[C@@H](O)c1ccccc1)c1ccccc1.Cl` yields MIC of 125

---

Tested on: Candida albicans
Assay: Antimicrobial activity against Candida albicans MTCC 227 at 1 mg/disc after 24 hrs by disc diffusion assay
Assay type: functional
Active and inactive are the calls of the source. The rule behind the calls is not given here.
parameter: inhibition zone (IZ)

Some compounds with known inhibition zone (IZ) results, for comparison:
Query `CC[C@H](N[C@H](C)[C@@H](O)c1ccccc1)c1ccccc1.Cl` yields inhibition zone (IZ) of 20 mm

Query `CC(C)C[C@H](C)N[C@H](C)[C@@H](O)c1ccccc1.Cl` yields inhibition zone (IZ) of 13 mm

Query `C[C@H](N[C@H](C)c1ccccc1)[C@H](O)c1ccccc1.Cl` yields inhibition zone (IZ) of 14 mm

Query CC(=O)N1CCN(c2ccc(OCC3COC(Cn4ccnc4)(c4ccc(Cl)cc4Cl)O3)cc2)CC1 (stereo unspecified) [KETOCONAZOLE] yields inhibition zone (IZ) of 28 mm

Query `COc1ccc([C@@H](C)N[C@@H](C)[C@H](O)c2ccccc2)cc1.Cl` yields inhibition zone (IZ) of 17 mm

Others:
Query CC[C@H](C)N[C@H](C)[C@@H](O)c1ccccc1.Cl (mixture of isomers) yields inhibition zone (IZ) of inactive

Query `COc1ccc([C@H](C)N[C@H](C)[C@@H](O)c2ccccc2)cc1.Cl` yields inhibition zone (IZ) of 16 mm

Query `CC[C@@H](N[C@@H](C)[C@H](O)c1ccccc1)c1ccccc1.Cl` yields inhibition zone (IZ) of 22 mm

Query `C[C@H](N[C@H](C)[C@@H](O)c1ccccc1)c1ccccc1.Cl` yields inhibition zone (IZ) of 15 mm

Query `CC(C)C[C@@H](C)N[C@@H](C)[C@H](O)c1ccccc1.Cl` yields inhibition zone (IZ) of 17 mm

Query CC[C@@H](C)N[C@@H](C)[C@H](O)c1ccccc1.Cl (mixture of isomers) yields inhibition zone (IZ) of inactive

---

Below, each entry is listed alongside its reported MIC.
System: Candida albicans
Assay: Antimicrobial activity against Candida albicans MTCC 227 after 48 to 72 hrs by two fold dilution method
Format: functional
Dear colleague, please return just the value in µg/mL, with no unit written.

Some compounds with known MIC results, for comparison:
Query `CC(C)C[C@H](C)N[C@H](C)[C@@H](O)c1ccccc1.Cl` yields MIC of 250

Query `CC[C@H](N[C@H](C)[C@@H](O)c1ccccc1)c1ccccc1.Cl` yields MIC of 31.2

Query `CC(C)C[C@@H](C)N[C@@H](C)[C@H](O)c1ccccc1.Cl` yields MIC of 62.5

Others:
Query `CC[C@@H](N[C@@H](C)[C@H](O)c1ccccc1)c1ccccc1.Cl` yields MIC of 31.2

Query CC(=O)N1CCN(c2ccc(OCC3COC(Cn4ccnc4)(c4ccc(Cl)cc4Cl)O3)cc2)CC1 (stereo not given) [KETOCONAZOLE] yields MIC of 25
